Examples of molecules with documented Zeta Potential (mV) follow.
- RUN DESCRIPTION: Physical characterisation of DNA-containing LNPs (DLS, NTA, zeta potential)
- Assay type: physicochemical
- TEST PARAMETERS: nano-pB-EF1a-GFP DNA LNPs: compound/DOPE/Cholesterol/DMG-PEG2000 38.0/50.0/10.0/2.0, lipid:DNA 45:1 (w/w)
ENDPOINT NAME: Zeta Potential (mV)

MOLECULE	MEAS VALUE
CC(C)C(CCC1CCC(C(=O)NCCCCCCNC(=O)C2CCC(CCC(SCCN(C)C)C(C)C)C(SCCN(C)C)C2)CC1SCCN(C)C)SCCN(C)C (stereo not shown)	−0.02
CC(C)C(CCC(C)C(CCC1CC2C(=O)N(c3ccc(N4C(=O)C5CC(CCC(SCCN(C)C)C(C)CCC(SCCN(C)C)C(C)C)C(SCCN(C)C)CC5C4=O)cc3)C(=O)C2CC1SCCN(C)C)SCCN(C)C)SCCN(C)C (stereo not shown)	0.96
CC(C)C(CCC(C)C(CCC1CCC(C(=O)NC2CCC(CC3CCC(NC(=O)C4CCC(CCC(SCCN(C)C)C(C)CCC(SCCN(C)C)C(C)C)C(SCCN(C)C)C4)CC3)CC2)CC1SCCN(C)C)SCCN(C)C)SCCN(C)C (stereo not shown)	0.21
CC(C)C(CCC(C)C(CCC1CCC(C(=O)NCCCCCCNC(=O)C2CCC(CCC(SCCN(C)C)C(C)CCC(SCCN(C)C)C(C)C)C(SCCN(C)C)C2)CC1SCCN(C)C)SCCN(C)C)SCCN(C)C (stereo not shown)	0.67

---

Examples of compounds with documented Diameter (NTA; nm) follow.
- RUN DESCRIPTION: Physical characterisation of mRNA-containing LNPs (DLS, NTA, zeta potential)
- Assay type: physicochemical
- TEST PARAMETERS: Fluc mRNA LNPs: compound/DOPE/Cholesterol/DMG-PEG2000 41.44/45.85/10/2.7, lipid:RNA 40:1 (w/w)

COMPOUND	UNIT	Diameter (NTA; nm)
CC(C)C(CCC(C)C(CCC1CCC(C(=O)NC2CCC(CC3CCC(NC(=O)C4CCC(CCC(SCCN(C)C)C(C)CCC(SCCN(C)C)C(C)C)C(SCCN(C)C)C4)CC3)CC2)CC1SCCN(C)C)SCCN(C)C)SCCN(C)C (stereo not shown)	nm	84.4
CC(C)C(CCC(C)C(CCC1CC2C(=O)N(c3ccc(N4C(=O)C5CC(CCC(SCCN(C)C)C(C)CCC(SCCN(C)C)C(C)C)C(SCCN(C)C)CC5C4=O)cc3)C(=O)C2CC1SCCN(C)C)SCCN(C)C)SCCN(C)C (stereo not shown)	nm	108.4
CC(C)C(CCC(C)C(CCC1CCC(C(=O)NCCCCCCNC(=O)C2CCC(CCC(SCCN(C)C)C(C)CCC(SCCN(C)C)C(C)C)C(SCCN(C)C)C2)CC1SCCN(C)C)SCCN(C)C)SCCN(C)C (stereo not shown)	nm	126.5
CC(C)C(CCC1CCC(C(=O)NCCCCCCNC(=O)C2CCC(CCC(SCCN(C)C)C(C)C)C(SCCN(C)C)C2)CC1SCCN(C)C)SCCN(C)C (stereo not shown)	nm	113.8

---

Examples of molecules with documented Particle Size (nm) DNA follow.
- RUN DESCRIPTION: Particle size and PDI of hand-mixed mRNA or DNA LNPs
- Format: physicochemical
- TEST PARAMETERS: hand-mixed DNA LNPs: compound/DOPE/Cholesterol/DMG-PEG2000 38/50/10.0/2.0, lipid:DNA 45:1

MOLECULE	Particle Size (nm) DNA
CC(C)C(CCC(C)C(CCC1CCC(C(=O)OCCCCCCCCCCCCCCCCCCCCOC(=O)C2CCC(CCC(SCCN(C)C)C(C)CCC(SCCN(C)C)C(C)C)C(SCCN(C)C)C2)CC1SCCN(C)C)SCCN(C)C)SCCN(C)C (stereo not drawn)	228.0
CC(C)C(CCC1CCC(C(=O)OCCCCCCCCCCCCCCCCCCCCOC(=O)C2CCC(CCC(SCCN(C)C)C(C)C)C(SCCN(C)C)C2)CC1SCCN(C)C)SCCN(C)C (stereo not drawn)	149.8
CC(C)C(CCC1CCC(C(=O)OCCCCCCSCCCCCCCCSCCCCCCOC(=O)C2CCC(CCC(SCCN(C)C)C(C)C)C(SCCN(C)C)C2)CC1SCCN(C)C)SCCN(C)C (stereo not drawn)	161.1

Attribution: patent US12642870B2
